biological target: human KDR (human, UniProt P35968 20-1356); test: cell-based or functional assay
Sequence (P35968 20-1356): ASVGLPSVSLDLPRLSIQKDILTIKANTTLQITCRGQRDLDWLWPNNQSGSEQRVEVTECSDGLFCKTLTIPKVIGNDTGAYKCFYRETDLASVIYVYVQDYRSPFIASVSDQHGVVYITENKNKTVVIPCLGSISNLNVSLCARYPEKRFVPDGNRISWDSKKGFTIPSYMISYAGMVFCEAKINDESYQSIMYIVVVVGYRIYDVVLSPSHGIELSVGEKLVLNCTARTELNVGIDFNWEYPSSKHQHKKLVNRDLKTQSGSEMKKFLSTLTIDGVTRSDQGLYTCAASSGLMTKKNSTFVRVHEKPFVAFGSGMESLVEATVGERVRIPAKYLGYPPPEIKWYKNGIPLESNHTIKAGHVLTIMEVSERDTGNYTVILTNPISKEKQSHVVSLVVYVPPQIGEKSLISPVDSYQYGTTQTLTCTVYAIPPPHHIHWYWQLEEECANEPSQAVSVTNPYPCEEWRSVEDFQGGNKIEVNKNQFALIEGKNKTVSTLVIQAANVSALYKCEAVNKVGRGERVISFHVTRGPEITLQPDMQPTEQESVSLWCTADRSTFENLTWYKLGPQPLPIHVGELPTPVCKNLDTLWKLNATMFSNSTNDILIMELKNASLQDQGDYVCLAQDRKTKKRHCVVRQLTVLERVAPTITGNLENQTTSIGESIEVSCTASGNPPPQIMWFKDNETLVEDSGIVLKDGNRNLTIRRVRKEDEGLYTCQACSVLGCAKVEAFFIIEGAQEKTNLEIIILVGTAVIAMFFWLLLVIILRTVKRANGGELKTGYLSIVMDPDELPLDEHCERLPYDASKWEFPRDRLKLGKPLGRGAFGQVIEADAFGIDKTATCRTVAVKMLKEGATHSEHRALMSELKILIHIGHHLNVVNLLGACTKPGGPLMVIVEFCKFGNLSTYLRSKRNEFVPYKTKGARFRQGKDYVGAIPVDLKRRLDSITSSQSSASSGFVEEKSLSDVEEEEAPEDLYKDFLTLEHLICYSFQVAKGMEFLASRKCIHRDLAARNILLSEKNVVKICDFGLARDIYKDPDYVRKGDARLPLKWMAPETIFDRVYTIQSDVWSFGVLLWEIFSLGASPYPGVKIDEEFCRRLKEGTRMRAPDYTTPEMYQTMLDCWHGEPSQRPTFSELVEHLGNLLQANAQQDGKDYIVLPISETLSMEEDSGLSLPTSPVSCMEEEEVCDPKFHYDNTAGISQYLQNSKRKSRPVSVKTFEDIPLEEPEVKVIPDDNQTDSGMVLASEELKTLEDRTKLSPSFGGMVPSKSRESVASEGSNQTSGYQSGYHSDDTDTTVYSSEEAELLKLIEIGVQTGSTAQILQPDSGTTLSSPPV
Would you mind telling me the reported HUVEC survival, Maximum Inhibition at 50 nM (% Inhibition), N = 2 of each entry?
Report the figure in % without appending any unit label.

Query (binder): 22B8 (antibody, V domains shown, Fully human monoclonal antibody from a XenoMouse hybridoma (IgG2 or IgG4 strain), purified) VH: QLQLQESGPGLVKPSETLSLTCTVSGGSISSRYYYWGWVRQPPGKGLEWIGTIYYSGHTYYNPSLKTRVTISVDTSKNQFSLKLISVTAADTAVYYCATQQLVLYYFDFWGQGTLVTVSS VL: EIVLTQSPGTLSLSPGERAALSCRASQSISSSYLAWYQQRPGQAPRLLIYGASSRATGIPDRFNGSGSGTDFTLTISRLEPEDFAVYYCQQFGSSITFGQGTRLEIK ; field requested: HUVEC survival, Maximum Inhibition at 50 nM (% Inhibition), N = 2
95

Please give the result for 32G7 (antibody, V domains shown, Fully human monoclonal antibody from a XenoMouse hybridoma (IgG2 or IgG4 strain), purified) VH: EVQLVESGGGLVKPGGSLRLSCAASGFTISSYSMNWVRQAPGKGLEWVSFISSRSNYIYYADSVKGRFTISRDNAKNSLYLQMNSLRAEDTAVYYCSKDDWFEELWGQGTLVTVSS VL: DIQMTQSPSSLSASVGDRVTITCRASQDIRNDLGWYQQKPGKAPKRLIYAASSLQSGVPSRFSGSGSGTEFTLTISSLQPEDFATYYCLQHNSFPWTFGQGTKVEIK too.
72

Now give it for 32F4 (antibody, V domains shown, Fully human monoclonal antibody from a XenoMouse hybridoma (IgG2 or IgG4 strain), purified) VH: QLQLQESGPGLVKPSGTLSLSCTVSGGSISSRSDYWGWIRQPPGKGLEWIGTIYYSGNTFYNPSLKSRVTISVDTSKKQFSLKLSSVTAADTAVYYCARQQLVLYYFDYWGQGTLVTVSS VL: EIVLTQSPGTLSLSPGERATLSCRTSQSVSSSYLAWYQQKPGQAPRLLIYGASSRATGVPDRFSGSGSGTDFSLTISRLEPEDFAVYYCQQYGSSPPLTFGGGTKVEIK too.
94

Now the binder 21H6 (antibody, V domains shown, Fully human monoclonal antibody from a XenoMouse hybridoma, purified) VH: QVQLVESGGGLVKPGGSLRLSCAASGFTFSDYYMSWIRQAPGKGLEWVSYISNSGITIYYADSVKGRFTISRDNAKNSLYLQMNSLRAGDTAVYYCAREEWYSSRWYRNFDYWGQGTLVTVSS VL: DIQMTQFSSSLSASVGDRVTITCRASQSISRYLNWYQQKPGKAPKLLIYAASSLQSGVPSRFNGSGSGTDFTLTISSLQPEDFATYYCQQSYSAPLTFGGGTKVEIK
96

Another binder: 24B3 (antibody, V domains shown, Fully human monoclonal antibody from a XenoMouse hybridoma (IgG2 or IgG4 strain), purified) VH: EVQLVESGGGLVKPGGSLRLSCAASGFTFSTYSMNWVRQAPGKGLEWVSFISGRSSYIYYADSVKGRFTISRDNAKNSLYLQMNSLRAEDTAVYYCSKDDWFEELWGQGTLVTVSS VL: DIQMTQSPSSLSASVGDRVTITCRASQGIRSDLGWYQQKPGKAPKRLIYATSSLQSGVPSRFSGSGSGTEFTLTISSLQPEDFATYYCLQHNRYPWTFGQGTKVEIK
82
